Source listed as the supplement of paper PMC3545927.

# study_target: furin, P09958;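 note: purified furin at 1:10 enzyme:substrate in 50 mM HEPES pH 7.5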
# Sequence (P09958 whole entry): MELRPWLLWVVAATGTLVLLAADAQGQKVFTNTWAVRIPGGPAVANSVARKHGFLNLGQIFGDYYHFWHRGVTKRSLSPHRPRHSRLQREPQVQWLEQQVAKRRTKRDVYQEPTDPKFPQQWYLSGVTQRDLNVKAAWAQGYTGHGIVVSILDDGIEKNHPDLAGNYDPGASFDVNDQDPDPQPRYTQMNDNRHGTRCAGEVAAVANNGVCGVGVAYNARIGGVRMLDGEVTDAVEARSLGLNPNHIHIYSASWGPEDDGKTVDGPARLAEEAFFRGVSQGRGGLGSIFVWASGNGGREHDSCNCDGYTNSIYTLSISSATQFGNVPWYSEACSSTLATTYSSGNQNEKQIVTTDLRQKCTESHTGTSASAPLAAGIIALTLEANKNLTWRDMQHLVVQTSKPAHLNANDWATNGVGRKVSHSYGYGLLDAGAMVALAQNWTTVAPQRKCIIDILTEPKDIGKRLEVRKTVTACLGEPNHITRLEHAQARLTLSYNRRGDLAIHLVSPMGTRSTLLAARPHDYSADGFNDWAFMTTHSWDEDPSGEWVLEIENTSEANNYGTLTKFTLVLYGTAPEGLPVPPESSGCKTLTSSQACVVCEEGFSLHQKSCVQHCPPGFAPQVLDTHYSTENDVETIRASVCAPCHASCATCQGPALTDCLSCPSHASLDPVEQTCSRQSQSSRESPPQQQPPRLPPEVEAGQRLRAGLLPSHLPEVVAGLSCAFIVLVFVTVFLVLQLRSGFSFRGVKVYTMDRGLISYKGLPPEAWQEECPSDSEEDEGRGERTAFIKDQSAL
# experimental_details: furin cleavage Z-score vs untreated control; higher = more cleavage, active = 3.5 or more, inactive = 1 or less, 8 variable residues between constant flanks
# test_settings: 15 min
This is one part of the list. The hit rate among all sequences tested is not known here.
Here, each record is paired with measured furin cleavage Z-score data.

query_sequence	furin cleavage Z-score
CARSRKEVELAGNASASA [FS-2089]	0.38
CAAAEEQKLPAGNASASA [HC1378]	-0.838
CARWKRTQRHAGNASASA [FS-2623]	11.5
CAAKRRTKRDAGNASASA [FS-1509]	12.3
CATQGCNCSIAGNASASA [HC311]	-0.922
CASTPCSCHLAGNASASA [HC2540]	-0.121
CATGDNTTTSAGNASASA [HC1341]	0.808
